# test-protocol: MTT assay (cytotoxicity)
# Type: cell-based
# condition-details: human; H9 cells; five days incubation

chemical-string	CC50 at 120 h
CN1C(=O)c2cccnc2N(C2CC2)c2nc(-c3cc[nH]c3)ccc21	> 80 µM
CCN1c2ncccc2C(=O)N(C)c2ccc(-c3c[nH]c4ccccc34)nc21	> 15 µM
CN1C(=O)c2cccnc2N(C2CC2)c2nc(-c3cn[nH]c3)ccc21	> 60 µM
CCCN1c2ncccc2C(=O)N(C)c2ccc(-c3cn[nH]c3)nc21	> 60 µM
CCN1c2ncccc2C(=O)N(C)c2ccc(-c3cn[nH]c3)nc21	> 60 µM
CCCN1c2nc(-c3cn[nH]c3)ccc2NC(=O)c2cccnc21	> 60 µM
CCN1c2ncccc2C(=O)N(C)c2ccc(-c3cc[nH]c3)nc21	> 50 µM
CCN1c2ncccc2C(=O)N(C)c2ccc(-c3cnn(CC)c3)nc21	> 60 µM
